# collection of IC50 values tested on CHK1 (Homo sapiens, UniProt O14757)
# Sequence (O14757 whole entry): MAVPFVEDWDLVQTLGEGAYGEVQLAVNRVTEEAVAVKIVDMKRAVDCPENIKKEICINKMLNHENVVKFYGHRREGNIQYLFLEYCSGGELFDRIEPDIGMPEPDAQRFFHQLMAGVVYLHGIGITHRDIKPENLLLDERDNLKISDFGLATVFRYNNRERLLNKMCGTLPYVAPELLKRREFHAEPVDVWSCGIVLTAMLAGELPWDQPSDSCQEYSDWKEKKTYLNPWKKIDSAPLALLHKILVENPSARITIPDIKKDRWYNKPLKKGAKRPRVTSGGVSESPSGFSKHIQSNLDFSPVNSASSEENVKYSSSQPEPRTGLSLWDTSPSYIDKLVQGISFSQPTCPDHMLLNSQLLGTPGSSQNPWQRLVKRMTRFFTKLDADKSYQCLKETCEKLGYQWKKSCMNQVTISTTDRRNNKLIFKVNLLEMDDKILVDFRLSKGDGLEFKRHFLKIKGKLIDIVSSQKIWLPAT
Answers are plain numbers, in nM.

compound	IC50 / nM
COc1cc(N2CCC3(CCN(C)CC3)CC2)ccc1Nc1ncc(Cl)c(Nc2ccccc2P(C)(C)=O)n1	185

Let us move to another entry and its IC50.
Inquiry: Request - read-out IC50 | tested on CHK1 (Homo sapiens, UniProt O14757) | compound COc1cc(N2CCC(N3CCN(C)CC3)CC2)ccc1Nc1ncc(Cl)c(Nc2ccccc2P(C)(C)=O)n1 [Brigatinib, reference compound]
Reply text: 70

* * *

# assayed-target: MRP2 (Homo sapiens, UniProt Q92887)
# Construct: host or cells: membrane vesicles ('Membrane capsule'), MRP2 versus NC control, with ATP or AMP
# Sequence (Q92887 whole entry): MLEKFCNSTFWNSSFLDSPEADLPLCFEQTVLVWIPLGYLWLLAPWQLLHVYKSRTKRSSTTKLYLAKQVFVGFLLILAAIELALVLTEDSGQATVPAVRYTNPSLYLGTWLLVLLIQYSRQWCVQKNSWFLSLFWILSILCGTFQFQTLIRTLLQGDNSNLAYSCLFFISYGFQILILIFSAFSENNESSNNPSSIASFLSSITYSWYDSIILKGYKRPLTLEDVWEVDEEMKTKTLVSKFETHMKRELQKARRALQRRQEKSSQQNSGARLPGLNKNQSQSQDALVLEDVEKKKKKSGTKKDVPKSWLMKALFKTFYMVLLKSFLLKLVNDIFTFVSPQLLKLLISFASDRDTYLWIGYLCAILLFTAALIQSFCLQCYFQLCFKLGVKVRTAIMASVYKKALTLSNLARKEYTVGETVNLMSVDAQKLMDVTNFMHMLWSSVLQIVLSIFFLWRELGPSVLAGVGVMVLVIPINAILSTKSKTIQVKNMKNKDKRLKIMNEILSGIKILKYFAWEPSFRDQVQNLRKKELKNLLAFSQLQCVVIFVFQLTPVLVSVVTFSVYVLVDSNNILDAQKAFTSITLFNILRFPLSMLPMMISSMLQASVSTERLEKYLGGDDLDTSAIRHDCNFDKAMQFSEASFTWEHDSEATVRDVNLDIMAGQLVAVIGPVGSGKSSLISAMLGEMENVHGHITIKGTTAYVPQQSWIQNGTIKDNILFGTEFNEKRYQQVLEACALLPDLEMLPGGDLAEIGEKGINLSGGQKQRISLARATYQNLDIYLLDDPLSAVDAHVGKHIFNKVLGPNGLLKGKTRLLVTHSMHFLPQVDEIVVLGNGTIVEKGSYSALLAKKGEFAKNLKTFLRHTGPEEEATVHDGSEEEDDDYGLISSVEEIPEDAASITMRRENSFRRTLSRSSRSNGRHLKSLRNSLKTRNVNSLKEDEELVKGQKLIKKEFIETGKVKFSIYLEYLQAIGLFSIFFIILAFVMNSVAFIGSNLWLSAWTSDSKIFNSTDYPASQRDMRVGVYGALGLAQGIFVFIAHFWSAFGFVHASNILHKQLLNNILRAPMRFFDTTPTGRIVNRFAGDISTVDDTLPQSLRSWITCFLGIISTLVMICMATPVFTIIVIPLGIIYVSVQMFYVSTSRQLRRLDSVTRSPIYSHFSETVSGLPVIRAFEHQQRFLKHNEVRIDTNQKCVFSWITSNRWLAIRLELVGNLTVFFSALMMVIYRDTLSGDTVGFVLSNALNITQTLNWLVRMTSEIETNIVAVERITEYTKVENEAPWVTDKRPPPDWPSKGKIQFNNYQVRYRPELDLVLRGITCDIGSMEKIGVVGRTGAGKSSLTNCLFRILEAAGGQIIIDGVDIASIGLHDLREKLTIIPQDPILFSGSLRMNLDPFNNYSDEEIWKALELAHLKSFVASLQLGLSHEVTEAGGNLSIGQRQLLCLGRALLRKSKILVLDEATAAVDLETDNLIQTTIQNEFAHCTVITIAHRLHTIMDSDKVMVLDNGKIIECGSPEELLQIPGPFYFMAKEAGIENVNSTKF
# experiment-notes: MRP2 inhibitor investigation
# Format: in vitro ADME
# test-context: probe CDCF; MRP2; substrate CDCF 5 μM; inhibitor 10 μM; read-out: Inhibition rate
property-name: inhibition at 10 µM (%)
Numbers only, in %.

Inquiry: Fill blank: measured inhibition at 10 µM of the molecule COc1cc(N2CCC3(CCN(C)CC3)CC2)ccc1Nc1ncc(Cl)c(Nc2ccccc2P(C)(C)=O)n1 is ____.
Reply text: -3.8
